test: Inhibition of human HSP90alpha expressed in yeast assessed as growth inhibition of host after 72 hrs
parameter measured: IC50 (µM)
Entry rule: numbers only, all in µM.

Give IC50 for the following molecule: COCC(=O)Nc1c(C(=O)OC)n(CCC(C)C)c2ncc(NC(C)CCC=C(C)C)cc12 (stereo unspecified)
308
